assay: Pharmacokinetic test in beagle dogs; type: in vivo; conditions: dog, po; male beagle dogs, intragastric administration (3 mg/kg), plasma
assay_endpoint: AUC(0-t) (ng·h/mL)
# number only, unit ng·h/mL dropped from output

Quick check: AUC(0-t) of [2H]C([2H])([2H])C(=O)N[C@H]1CC[C@H](c2cc3oc(CN4Cc5ccc(C(F)(F)F)cc5C4)cc(=O)c3o2)CC1 [Compound 58] ? 24800

====

assay: Pharmacokinetic test in beagle dogs; type: in vivo; conditions: dog; male beagle dogs, intravenous administration (1 mg/kg), plasma
assay_endpoint: half-life (h)
# number only, unit h dropped from output

Quick check: half-life of [2H]C([2H])([2H])C(=O)N[C@H]1CC[C@H](c2cc3oc(CN4Cc5ccc(C(F)(F)F)cc5C4)cc(=O)c3o2)CC1 [Compound 58] ? 10.2
